// data source = paper PMC9376891

Target: Rae1(31-368)-Nup98(157-213) heterodimer (human), P78406
Assay: ITC
pKd: −log10 of the molar value.
Endpoint name: pKd

>>> numeric_value("DEMDTHDPNQLRY (modifications not checked) [VSV M NTE peptide]")
3.93
